Give self-cleavage for every item shown.
B1: OR4K15 (parent)
chain: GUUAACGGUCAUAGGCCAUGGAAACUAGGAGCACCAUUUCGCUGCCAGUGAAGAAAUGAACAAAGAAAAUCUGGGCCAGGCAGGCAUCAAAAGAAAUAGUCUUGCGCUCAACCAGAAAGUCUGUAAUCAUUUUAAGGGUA

Variants of: B1
PROTOCOL DETAILS: self-cleavage, relative activity (ratio to wild type); higher = more cleavage; in vitro, sequencing; the parent is a self-cleaving ribozyme

U3C A114G
0.47
A22U G138U
2.01
A18G C109U
0.82
A62G G138A
1.04
A47G A116G
0.35
A78U A110G
0.05

State recorded self-cleavage for all listed variants.
1. A47G A116C
2. G41A U127C

Outgoing:
0.03
1.22

State recorded self-cleavage for all listed variants.
1. G28A A56G
2. U130C A140G
3. G31A A86G
4. A18G U130G
5. A59U U70C
6. A116G A118G
7. U43C U132A
8. A59G C107U

Outgoing:
[1.49, 1, 1.75, 1.61, 0.53, 0.22, 1.82, 0.01]

State recorded self-cleavage for all listed variants.
1. C35U A111U
2. U43C A135U
3. A24C A66U
4. A11G A129C
5. U43C U70C
6. A66G U87C
7. A11C A13G
8. U124C A135G

Outgoing:
1. 0.05
2. 0.71
3. 1.03
4. 0.66
5. 0.83
6. 0.77
7. 0.93
8. 1.33

State recorded self-cleavage for all listed variants.
1. A27G A54U
2. A22G A98G
3. A82G A117C
4. A23U U130C
5. C16U A69U
6. A116C U131C

Outgoing:
[1.03, 0.88, 0.06, 0.7, 0.66, 0]

Numbers sourced from the RNAGym collection of RNA variant scans (doi:10.7554/elife.90254).
